These entries and their values trace back to patent US10703756B2.

Measured On: JAK3 enzyme (Homo sapiens, UniProt P52333)
Sequence (P52333 1-1124): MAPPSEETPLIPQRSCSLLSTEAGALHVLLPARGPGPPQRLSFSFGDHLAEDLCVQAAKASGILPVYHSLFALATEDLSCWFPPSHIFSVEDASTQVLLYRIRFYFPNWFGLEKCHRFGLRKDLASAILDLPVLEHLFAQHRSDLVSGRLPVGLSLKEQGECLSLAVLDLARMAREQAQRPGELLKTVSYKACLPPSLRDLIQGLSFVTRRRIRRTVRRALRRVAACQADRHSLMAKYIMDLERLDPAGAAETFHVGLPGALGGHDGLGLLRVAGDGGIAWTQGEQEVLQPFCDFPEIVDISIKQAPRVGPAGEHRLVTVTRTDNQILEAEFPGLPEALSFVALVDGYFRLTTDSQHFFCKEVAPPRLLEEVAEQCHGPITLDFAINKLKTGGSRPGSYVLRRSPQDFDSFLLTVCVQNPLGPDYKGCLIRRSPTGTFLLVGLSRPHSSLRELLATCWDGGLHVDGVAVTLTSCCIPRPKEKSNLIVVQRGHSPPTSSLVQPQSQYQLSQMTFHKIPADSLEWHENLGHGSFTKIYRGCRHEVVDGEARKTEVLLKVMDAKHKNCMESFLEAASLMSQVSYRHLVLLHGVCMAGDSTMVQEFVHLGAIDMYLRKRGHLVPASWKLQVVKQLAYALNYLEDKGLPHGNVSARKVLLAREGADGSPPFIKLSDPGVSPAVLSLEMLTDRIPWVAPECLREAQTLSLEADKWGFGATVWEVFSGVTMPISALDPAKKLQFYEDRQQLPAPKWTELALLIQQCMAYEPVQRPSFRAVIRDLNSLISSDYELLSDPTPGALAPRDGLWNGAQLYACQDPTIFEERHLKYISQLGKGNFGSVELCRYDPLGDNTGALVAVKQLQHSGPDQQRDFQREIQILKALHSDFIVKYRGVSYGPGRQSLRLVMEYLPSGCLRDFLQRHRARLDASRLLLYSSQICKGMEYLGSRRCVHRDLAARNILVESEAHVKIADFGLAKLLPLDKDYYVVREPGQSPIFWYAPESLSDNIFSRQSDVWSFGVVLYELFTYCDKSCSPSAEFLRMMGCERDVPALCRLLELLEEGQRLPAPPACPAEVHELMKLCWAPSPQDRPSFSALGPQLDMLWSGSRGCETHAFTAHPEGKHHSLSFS
Procedure Text: JAK Caliper Enzyme Assay at 4 μM ATP
Type: biochemical
Quantity Measured: IC50 (nM)

Please review the following examples before continuing.
C=CC(=O)N1CCC(Nc2cnc3[nH]cc(C(=O)NCC4CC4)c3n2)CC1 [Example 172] :: 0.448
C=CC(=O)N1CCC(Oc2cnc3[nH]cc(C(=O)NCC4CC(F)(F)C4)c3n2)CC1 [Example 197] :: 0.788
C=CC(=O)N1CC[C@@H](Nc2cnc3[nH]cc(C(=O)NC4CCCC4)c3n2)[C@@H](OC)C1 (racemic) [Example 299] :: 1.21
C=CC(=O)N1C[C@@H](Nc2ncnc3[nH]ccc23)CC[C@H]1COC (single isomer, unassigned) [Example 93] :: 711
C=CC(=O)N1CC[C@@H](Nc2cnc3[nH]cc(C(=O)NCC(C)CC(F)(F)F)c3n2)[C@@H](OC)C1 (mixture of isomers) [Example 269] :: 0.888

[I] C=CC(=O)N1CCN(c2cnc3[nH]cc(C(=O)N[C@H](CO)[C@@H](C)CC)c3n2)CC1(C)C [Example 145]
[II] C=CC(=O)N1CCC(Nc2cnc3[nH]cc(C(=O)NCc4nc(C)cc(C(F)(F)F)n4)c3n2)CC1 [Example 171]
Query: Could you please tell me which of these two has the higher IC50: I or II ? # answer = label of selected item
Response: I
